# Tested Target: 3-hydroxy-3-methylglutaryl-coenzyme A reductase (Homo sapiens)
# Procedure Summary: Relative inhibition of HMG-CoA reductase compared to Mevinolin.
Property Measured: Relative potency

>  <Compound>
CC(C)c1nc(-c2ccccc2)cc(-c2ccc(F)cc2)c1CCC1C[C@@H](O)CC(=O)O1 (stereo partly drawn)

>  <Relative potency>
0.14

$$$$
>  <Compound>
CC(C)c1nc(C(C)(C)C)cc(-c2ccc(F)cc2)c1/C=C/[C@@H]1C[C@@H](O)CC(=O)O1

>  <Relative potency>
2.5

$$$$
>  <Compound>
CC(C)c1cc(-c2ccccc2)nc(-c2ccc(F)cc2)c1/C=C/[C@@H]1C[C@@H](O)CC(=O)O1

>  <Relative potency>
5

$$$$
>  <Compound>
Cc1nc(-c2ccccc2)cc(-c2ccc(F)cc2)c1/C=C/[C@@H]1C[C@@H](O)CC(=O)O1

>  <Relative potency>
0.56

$$$$
>  <Compound>
CC(C)c1nc(-c2ccccc2)cc(-c2ccc(F)cc2)c1/C=C/[C@@H]1C[C@@H](O)CC(=O)O1 [GLENVASTATIN]

>  <Relative potency>
10

$$$$

[A] Cc1cc(-c2ccc(F)cc2)c(/C=C/[C@@H]2C[C@@H](O)CC(=O)O2)c(C(C)C)n1
[B] COc1ccc(-c2cc(-c3ccccc3)nc(C(C)C)c2/C=C/[C@@H]2C[C@@H](O)CC(=O)O2)cc1
# return whichever of A and B has the smaller Relative potency State the label of the item chosen.
B
(B: 0.33, A: 1)

###

# Tested Target: 3-hydroxy-3-methylglutaryl-coenzyme A reductase (Rattus norvegicus, UniProt P51639)
# Sequence (P51639 whole entry): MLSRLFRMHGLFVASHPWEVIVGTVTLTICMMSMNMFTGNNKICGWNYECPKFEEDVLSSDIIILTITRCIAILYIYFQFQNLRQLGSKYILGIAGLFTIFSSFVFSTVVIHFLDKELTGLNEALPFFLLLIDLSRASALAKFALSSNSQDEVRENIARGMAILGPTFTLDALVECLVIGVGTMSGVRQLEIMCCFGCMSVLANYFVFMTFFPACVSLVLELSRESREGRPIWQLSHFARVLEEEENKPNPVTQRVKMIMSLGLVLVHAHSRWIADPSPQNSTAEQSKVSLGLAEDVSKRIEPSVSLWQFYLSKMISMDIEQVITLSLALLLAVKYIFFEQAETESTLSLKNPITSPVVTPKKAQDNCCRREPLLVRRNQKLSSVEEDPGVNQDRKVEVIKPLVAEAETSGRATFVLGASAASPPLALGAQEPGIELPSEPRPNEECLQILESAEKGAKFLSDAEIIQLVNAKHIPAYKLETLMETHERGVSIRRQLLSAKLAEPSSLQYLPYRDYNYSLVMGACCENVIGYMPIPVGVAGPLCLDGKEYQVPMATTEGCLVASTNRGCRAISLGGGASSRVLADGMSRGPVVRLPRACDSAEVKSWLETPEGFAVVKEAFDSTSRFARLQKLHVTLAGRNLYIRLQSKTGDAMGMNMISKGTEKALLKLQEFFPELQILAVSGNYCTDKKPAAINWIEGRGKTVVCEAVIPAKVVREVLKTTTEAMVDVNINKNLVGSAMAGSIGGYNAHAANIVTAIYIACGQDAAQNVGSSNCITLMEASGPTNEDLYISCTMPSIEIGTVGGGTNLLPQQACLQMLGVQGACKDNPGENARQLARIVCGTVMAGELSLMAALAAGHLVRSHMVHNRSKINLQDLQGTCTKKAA
Property Measured: IC50 (nM)

>  <Compound>
Cc1nc(C)c(CCC2C[C@@H](O)CC(=O)O2)c(-c2ccc(F)cc2)n1 (some centres undefined)

>  <Tested Target>
3-hydroxy-3-methylglutaryl-coenzyme A reductase (Rattus norvegicus, UniProt P51639)

>  <Unit Label>
nM

>  <IC50>
1000

$$$$

[a] Cc1nc(C)c(/C=C/[C@@H]2C[C@@H](O)CC(=O)O2)c(-c2ccc(F)cc2)n1
[b] CC(C)c1nc(C2CCCCC2)cc(-c2ccc(F)cc2)c1/C=C/[C@@H]1C[C@@H](O)CC(=O)O1
[c] CC(C)c1nc(-c2ccccc2)cc(-c2ccc(C(F)(F)F)cc2)c1/C=C/[C@@H]1C[C@@H](O)CC(=O)O1
Exam item: list the entries in increasing order of IC50. Output spec: a listing of the labels in the requested order.
b, c, a

###

# Tested Target: 3-hydroxy-3-methylglutaryl-coenzyme A reductase (Homo sapiens, UniProt P04035)
# Sequence (P04035 whole entry): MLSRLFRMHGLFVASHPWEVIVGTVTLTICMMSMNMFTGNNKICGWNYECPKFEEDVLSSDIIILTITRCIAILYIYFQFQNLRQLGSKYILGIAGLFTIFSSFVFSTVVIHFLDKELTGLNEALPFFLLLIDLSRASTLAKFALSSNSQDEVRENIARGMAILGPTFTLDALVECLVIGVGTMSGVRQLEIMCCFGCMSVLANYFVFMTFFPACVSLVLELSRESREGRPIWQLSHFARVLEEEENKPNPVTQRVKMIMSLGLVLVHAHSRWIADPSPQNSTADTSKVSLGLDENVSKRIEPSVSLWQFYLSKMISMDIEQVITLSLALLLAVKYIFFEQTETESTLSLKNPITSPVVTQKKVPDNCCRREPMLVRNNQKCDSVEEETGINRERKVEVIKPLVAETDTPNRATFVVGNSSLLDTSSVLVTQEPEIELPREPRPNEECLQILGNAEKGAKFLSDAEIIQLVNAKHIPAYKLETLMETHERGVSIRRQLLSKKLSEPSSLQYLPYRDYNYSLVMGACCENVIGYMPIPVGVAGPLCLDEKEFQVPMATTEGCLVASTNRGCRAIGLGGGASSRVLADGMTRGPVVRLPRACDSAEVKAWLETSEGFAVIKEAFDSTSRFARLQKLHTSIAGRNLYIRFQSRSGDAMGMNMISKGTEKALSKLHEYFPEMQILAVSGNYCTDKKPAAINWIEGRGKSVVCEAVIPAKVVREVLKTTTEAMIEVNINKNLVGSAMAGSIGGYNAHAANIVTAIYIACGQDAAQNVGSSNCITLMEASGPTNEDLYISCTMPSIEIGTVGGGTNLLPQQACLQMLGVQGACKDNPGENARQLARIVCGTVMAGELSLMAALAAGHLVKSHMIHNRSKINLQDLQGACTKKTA
# Procedure Summary: Inhibition of cellular HMG-CoA reductase in cultures of human HEP G2 cells, determined by decreased incorporation of sodium [14C]acetate into cholesterol.
Property Measured: IC50 (µM)

Some solved cases for reference:
>  <Structure>
CC(C)c1nc(C2CCCCC2)nc(-c2ccc(F)cc2)c1/C=C/[C@@H]1C[C@@H](O)CC(=O)O1

>  <Tested Target>
3-hydroxy-3-methylglutaryl-coenzyme A reductase (Homo sapiens, UniProt P04035)

>  <Experimental Result>
0.026

$$$$
>  <Structure>
Cc1nc(-c2ccccc2)cc(-c2ccc(F)cc2)c1/C=C\[C@@H]1C[C@@H](O)CC(=O)O1

>  <Tested Target>
3-hydroxy-3-methylglutaryl-coenzyme A reductase (Homo sapiens, UniProt P04035)

>  <Experimental Result>
5

$$$$

[a] CC(C)c1nc(C2CCCCC2)cc(-c2ccc(F)cc2)c1/C=C/[C@@H]1C[C@@H](O)CC(=O)O1
[b] CC(C)c1nc(-c2ccc(F)cc2)nc(-c2ccc(F)cc2)c1/C=C/[C@@H]1C[C@@H](O)CC(=O)O1
# return whichever of a and b has the smaller IC50 State the label of the item chosen.
a

###

# Tested Target: 3-hydroxy-3-methylglutaryl-coenzyme A reductase (Rattus norvegicus, UniProt P51639)
# Sequence (P51639 whole entry): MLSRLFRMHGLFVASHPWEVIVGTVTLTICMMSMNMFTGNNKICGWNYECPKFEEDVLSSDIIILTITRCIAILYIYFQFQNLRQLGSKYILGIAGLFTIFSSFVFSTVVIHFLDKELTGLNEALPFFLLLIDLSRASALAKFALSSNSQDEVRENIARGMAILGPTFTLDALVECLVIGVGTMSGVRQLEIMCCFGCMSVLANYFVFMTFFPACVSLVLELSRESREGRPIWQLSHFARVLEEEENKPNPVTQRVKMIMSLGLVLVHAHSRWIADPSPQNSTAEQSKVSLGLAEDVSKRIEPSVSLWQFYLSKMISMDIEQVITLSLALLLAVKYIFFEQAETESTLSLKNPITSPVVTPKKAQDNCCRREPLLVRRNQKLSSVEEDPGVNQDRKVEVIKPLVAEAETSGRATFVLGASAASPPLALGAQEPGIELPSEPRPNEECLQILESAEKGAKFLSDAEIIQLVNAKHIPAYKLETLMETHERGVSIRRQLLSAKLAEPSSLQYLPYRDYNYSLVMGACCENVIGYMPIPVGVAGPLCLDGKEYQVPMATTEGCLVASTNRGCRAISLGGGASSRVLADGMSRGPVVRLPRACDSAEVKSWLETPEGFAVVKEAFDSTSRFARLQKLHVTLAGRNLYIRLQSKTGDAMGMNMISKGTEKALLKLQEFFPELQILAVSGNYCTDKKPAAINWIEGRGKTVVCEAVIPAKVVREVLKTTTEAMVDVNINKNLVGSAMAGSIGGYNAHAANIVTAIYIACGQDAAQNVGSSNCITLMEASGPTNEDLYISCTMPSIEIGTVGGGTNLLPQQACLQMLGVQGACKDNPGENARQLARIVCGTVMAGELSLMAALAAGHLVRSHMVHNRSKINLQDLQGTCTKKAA
pIC50: −log10 of the molar value.
Property Measured: pIC50

Some solved cases for reference:
>  <Molecule>
Cc1nc(-c2ccccc2)cc(-c2ccc(F)cc2)c1/C=C/[C@@H]1C[C@@H](O)CC(=O)O1

>  <Property Measured>
pIC50

>  <Experimental Result>
7.42

$$$$
>  <Molecule>
CCc1nc(-c2ccccc2)cc(-c2ccc(F)cc2)c1/C=C/[C@@H]1C[C@@H](O)CC(=O)O1

>  <Property Measured>
pIC50

>  <Experimental Result>
7.40

$$$$
>  <Molecule>
Cc1cc(C)cc(-c2cc(-c3ccc(F)cc3)c(/C=C/[C@@H]3C[C@@H](O)CC(=O)O3)c(C(C)C)n2)c1

>  <Property Measured>
pIC50

>  <Experimental Result>
8.10

$$$$
>  <Molecule>
CC(C)c1nc(-c2ccc(F)cc2)cc(-c2ccc(F)cc2)c1/C=C/[C@@H]1C[C@@H](O)CC(=O)O1

>  <Property Measured>
pIC50

>  <Experimental Result>
8.70

$$$$
>  <Molecule>
O=C1C[C@H](O)C[C@@H](/C=C/c2c(-c3ccc(F)cc3)cc(-c3ccccc3)nc2C2CCCCC2)O1

>  <Property Measured>
pIC50

>  <Experimental Result>
7.52

$$$$

[I] Cc1cc(-c2ccc(F)cc2)c(/C=C/[C@@H]2C[C@@H](O)CC(=O)O2)c(C)n1
[II] CC[C@H](C)C(=O)O[C@H]1C[C@@H](C)C=C2C=C[C@H](C)[C@H](CC[C@@H]3C[C@@H](O)CC(=O)O3)[C@H]21
# return whichever of I and II has the smaller pIC50 State the label of the item chosen.
I
(I: 6.59, II: 8.10)

Data provenance is ChEMBL document CHEMBL1125087.
